System: CEM cells HIV-1 protection, formazan growth assay
Assay text: NCI AIDS Antiviral Assay
Experimental endpoint: EC50

// known answers, use as guide
>  <Compound>
CC(C)C(O)C(=O)C(F)C(C)C (stereo not drawn)

>  <Target under test>
CEM cells HIV-1 protection, formazan growth assay

>  <EC50>
> 1410 µM

$$$$
>  <Compound>
COc1cc2c(cc1OC)CC(=O)c1cc(OC)c(OC)cc1/C=C\2

>  <Target under test>
CEM cells HIV-1 protection, formazan growth assay

>  <EC50>
> 12.6 µM

$$$$
>  <Compound>
COc1ccc(SCc2ccc(C(=O)O)cc2[N+](=O)[O-])cc1

>  <Target under test>
CEM cells HIV-1 protection, formazan growth assay

>  <EC50>
> 295 µM

$$$$
>  <Compound>
Cc1cc(C)c2c(c1)CC1(Cc3c(C)ccc(C)c3C1=O)C2=O (stereo not drawn)

>  <Target under test>
CEM cells HIV-1 protection, formazan growth assay

>  <EC50>
> 100 µM

$$$$
>  <Compound>
[N-]=[N+]=NC[C@H]1OCO[C@H](CN=[N+]=[N-])[C@@H](OCCOCCCl)[C@@H]1OCCOCCCl

>  <Target under test>
CEM cells HIV-1 protection, formazan growth assay

>  <EC50>
> 200 µM

$$$$
>  <Compound>
CC(=O)OC1=C(C)S(=O)(=O)c2ccccc21

>  <Target under test>
CEM cells HIV-1 protection, formazan growth assay

>  <EC50>
> 200 µM

$$$$

// each compound listed below needs its EC50
1. O=C(NCCc1c[nH]c2ccccc12)C(F)(F)F
2. COc1ccc(C[C@H](N)C(=O)N2C[C@H](CO)C[C@H](n3ccc(=O)[nH]c3=O)C2)cc1
3. CC1(C)Cc2ccccc2C(C)(Cl)C(=O)N1 (stereo not drawn)
4. COc1cc2c(c3[nH]cc(C(=O)O)c(=O)c13)NC(=O)CS2
5. CC(=O)[C@H]1[C@@H](OCc2ccccc2)O[N+]([O-])=C(C)[C@@H]1c1ccccc1
6. OC1(c2cccnc2)c2ccccc2Oc2ccccc21

1: > 200 µM; 2: > 617 µM; 3: 191 µM; 4: > 200 µM; 5: > 123 µM; 6: > 200 µM

Quick one: give me EC50 for each item below, same order please.
1. CCc1c(Cc2ccccc2)n(COCC[Se]c2ccccc2)c(=O)[nH]c1=O
2. CCOC(=O)C(CC#Cc1ccc(C#CCC(NC(C)=O)C(=O)OCC)cc1)NC(C)=O (stereo not drawn)
3. COc1ccc(C[C@@H]2NC[C@@H](O)[C@@H]2OC(C)=O)cc1
4. c1ccc(N=C(N2CCCC2)N(CCN2CCCC2)c2ccccc2)cc1

1: 4.27 µM; 2: > 200 µM; 3: > 4.17 µM; 4: > 200 µM

List EC50 for every entry below, keeping the order given.
1. Cc1cc(S(=O)(=O)Nc2nnc3c4ccccc4cnn23)c(S)cc1Cl
2. S=C=Nc1ccc(SSc2ccc(N=C=S)cc2)cc1
3. Nc1c(N2CCCCC2)c(=O)nc2[nH]/c(=C\c3ccco3)c(=O)n12
4. C=CCN(c1cc(OC)c2[nH]cc(C)c2c1[N+](=O)[O-])S(C)(=O)=O
5. C(=C\C(SCc1ccccc1)SCc1ccccc1)/c1ccccc1
6. CC(CCC(N)=O)(CCC(N)=O)[N+](=O)[O-]

["56.2 µM", "> 13.5 µM", "> 200 µM", "97.7 µM", "> 200 µM", "> 200 µM"]

Ref: PubChem BioAssay AID179
